Entry source: the supplement of paper PMC13380429

# Test system: Vero E6
# assay summary: cell viability relative to DMSO; higher = less toxic
# conditions used: 72 h; 10 nM

compound	system tested	cell viability (%)
OCC[N+]12CN3CN(CN(C3)C1)C2	Vero E6	99.1
c1ccc(Cn2c(-c3ccc(OC[C@H](C4CCNCC4)n4c(-c5ccccc5)nc5ccccc54)cc3)nc3ccccc32)cc1	Vero E6	99.3
CC1/C=C/C=C/C=C/C=C/C=C/C=C/C=C/C(OC2O[C@H](C)[C@@H](O)[C@H](N)[C@@H]2O)CC(O)C(C(=O)O)C(O)CC(=O)CC(O)CC(O)CC(O)CC(=O)CCCC(=O)CC(=O)OC1C(C)CC(C)C(O)CC(=O)c1ccc(N)cc1 (some centres undefined)	Vero E6	104
Cn1c(COc2ccc(CC3SC(=O)NC3=O)cc2)nc2ccccc2c1=O (centres undefined)	Vero E6	94.8

---

Known cell viability of a selection of compounds
# System: Vero E6
# assay summary: cell viability relative to DMSO; higher = less toxic
# conditions used: 72 h; 1000 nM
assay metric: cell viability (%)

compound	assay metric	observed
CC[C@@H](CO)NC(=O)[C@@H]1C=C2c3cccc4c3c(cn4C)C[C@H]2N(C)C1 [methysergide]	cell viability	99.7
CC(C)(C)NC(=O)N[C@H](C(=O)N1C[C@H]2[C@@H]([C@H]1C(=O)NC(CC1CCC1)C(=O)C(N)=O)C2(C)C)C(C)(C)C (some centres undefined) [boceprevir]	cell viability	96.1
O=C(O)c1ccccc1C(=O)Nc1ccc(S(=O)(=O)Nc2nccs2)cc1 [phthalylsulfathiazole]	cell viability	94.5
Oc1ccc([C@@H]2Oc3ccc(O)cc3[C@@H]3CCC[C@@H]32)cc1 [erteberel]	cell viability	99.4

---

A collection of compounds and their measured cell viability
# System: HepG2
# assay summary: cell viability relative to DMSO; higher = less toxic
# conditions used: 72 h; 100 nM

compound	cell viability, %
Cc1cc(C(=O)CN2CCCC2)c(C)n1-c1ccc(F)cc1	101
O=C(NCCCCCCNC(=O)ON=C1CCCCC1)ON=C1CCCCC1	100
Cc1ccc2c(N3CCN(CCc4cccc(N5CCNC5=O)c4)CC3)cccc2n1	89.2
C[C@H](Cc1cc2c(c(C(N)=O)c1)N(CCCO)CC2)NCCOc1ccccc1OCC(F)(F)F	103
O=C(O)C(Cl)Cl [dichloroacetate]	110
CC(C)OC(=O)c1cc2c(OC[C@@H](O)CNC(C)(C)C)cccc2[nH]1	102
COc1ccc(C(=O)c2ccccc2)c(O)c1	98.9
O=C1CC[C@@H](C(=O)N2CSC[C@H]2C(=O)O)N1	101
Nc1ncnc2c1nc(Br)n2[C@@H]1O[C@@H]2COP(=O)(O)O[C@H]2[C@H]1O	93.1
Cc1c[nH]c(=O)n(CCCN2CCN(c3ccccc3OCC(F)(F)F)CC2)c1=O	95.9

---

# System: HepG2
# assay summary: cell viability relative to DMSO; higher = less toxic
# conditions used: 72 h; 10000 nM

molecule	cell viability
C=C[C@]1(C)C[C@@H](OC(=O)CS[C@@H]2C[C@H]3CC[C@@H](C2)N3C)[C@]2(C)[C@H](C)CC[C@]3(CCC(=O)[C@H]32)[C@@H](C)[C@@H]1O	74%
Cc1c(C(=O)NN2CCOCC2)nn(-c2ccc(Cl)cc2Cl)c1-c1ccc(I)cc1	103%
C[C@@H](CN)CC(=O)O	99%
CCOC1O[C@H]([C@@H](COCc2ccccc2)OCc2ccccc2)[C@H](OCc2ccccc2)[C@H]1O (stereo partly drawn) [tribenoside]	94.2%
C=C1C[C@]23C[C@@]1(O)CC[C@H]2[C@@]12C=C[C@H](O)[C@@](C)(C(=O)O1)[C@H]2[C@@H]3C(=O)O	104%
CCC1=C(C)CN(C(=O)NCCc2ccc(S(=O)(=O)NC(=O)N[C@H]3CC[C@H](C)CC3)cc2)C1=O [glimepiride]	104%
CNc1nc(NCc2ccc(NS(C)(=O)=O)cc2Cl)cc(-c2ccccn2)n1	54.8%
Oc1ccc([C@@H]2Oc3ccc(O)cc3[C@@H]3CCC[C@@H]32)cc1	52.4%
COc1cc(Nc2c(C#N)cnc3cc(OCCCN4CCN(C)CC4)c(OC)cc23)c(Cl)cc1Cl	15.9%
O=C(O)C(Cl)Cl [dichloroacetate]	102%
O=c1[nH]c(=O)n([C@H]2CCCO2)cc1F (racemic)	113%
CC(=O)OCC(=O)[C@@]1(O)CC[C@H]2[C@@H]3CCC4=CC(=O)CC[C@]4(C)[C@H]3C(=O)C[C@@]21C [cortisone-acetate]	101%
CCC1(c2ccc(N)cc2)CCC(=O)NC1=O (stereo not drawn) [aminoglutethimide]	71.8%
CC1(C)CCC(C)(C)c2cc(C(=O)Nc3ccc(C(=O)O)cc3)ccc21	97.3%
O=c1[nH]c2ccccc2c(=O)n1CCCN1CCN(c2ccccc2)CC1	93.6%
NC(=O)Nc1sc(-c2ccc(F)cc2)cc1C(N)=O	49.8%
Nc1[nH]cnc2ncnc1-2	93.2%
CC(=O)Nc1nnc(S(N)(=O)=O)s1 [acetazolamide]	98%
